Tested on: monoclonal antibody Sol-55
method_notes: competitive inhibition ELISA (c-ELISA), monoclonal antibody Sol-55
Type: binding, mouse
conditions_used: Sol-55 (IgG2a); ± one standard deviation
measure: IC50

structure_smiles_string: C[C@H]1CC[C@@H]2[C@@H](C)[C@H]3[C@H](C[C@H]4[C@@H]5CC=C6C[C@@H](O[C@@H]7O[C@H](CO)[C@H](O)[C@H](O[C@@H]8O[C@H](CO)[C@@H](O)[C@H](O)[C@H]8O)[C@H]7O[C@@H]7O[C@@H](C)[C@H](O)[C@@H](O)[C@H]7O)CC[C@]6(C)[C@H]5CC[C@]34C)N2C1
measured: 118 ± 18 ppb

Next compound, please.
# assay system monoclonal antibody Sol-55: give IC50 of "C[C@H]1CC[C@@H]2[C@@H](C)[C@H]3[C@H](C[C@H]4[C@@H]5CC=C6C[C@@H](O)CC[C@]6(C)[C@H]5CC[C@]34C)N2C1"
60 ± 19 ppb

* * *

Tested on: monoclonal antibody Sol-59
method_notes: competitive inhibition ELISA (c-ELISA), monoclonal antibody Sol-59
Assay type: binding, mouse
conditions_used: Sol-59 (IgG2a); ± one standard deviation
measure: IC50

Here is how some compounds turned out for IC50.
structure_smiles_string: C[C@H]1CC[C@@H]2[C@@H](C)[C@H]3[C@H](C[C@H]4[C@@H]5CC=C6C[C@@H](O)CC[C@]6(C)[C@H]5CC[C@]34C)N2C1
target_or_test_system: monoclonal antibody Sol-59
measured: 16 ± 1.7 ppb

structure_smiles_string: C[C@H]1CC[C@@H]2[C@@H](C)[C@H]3[C@H](C[C@H]4[C@@H]5CC=C6C[C@@H](O[C@@H]7O[C@H](CO)[C@H](O[C@@H]8O[C@@H](C)[C@H](O)[C@@H](O)[C@H]8O)[C@H](O)[C@@H]7O[C@@H]7O[C@@H](C)[C@@H](O)[C@@H](O)[C@H]7O)CC[C@]6(C)[C@H]5CC[C@]34C)N2C1
target_or_test_system: monoclonal antibody Sol-59
measured: 25 ± 2.1 ppb

// switching to the query compound
Give the reported IC50 for this compound. "C[C@H]1CC[C@@H]2[C@@H](C)[C@H]3[C@H](C[C@H]4[C@@H]5CC=C6C[C@@H](O[C@@H]7O[C@H](CO)[C@H](O)[C@H](O[C@@H]8O[C@H](CO)[C@@H](O)[C@H](O)[C@H]8O)[C@H]7O[C@@H]7O[C@@H](C)[C@H](O)[C@@H](O)[C@H]7O)CC[C@]6(C)[C@H]5CC[C@]34C)N2C1"
35 ± 8 ppb

* * *

Test system: monoclonal antibody Sol-68
method_notes: competitive inhibition ELISA (c-ELISA), monoclonal antibody Sol-68
Assay type: binding, mouse
conditions_used: Sol-68 (IgG1); ± one standard deviation
Procedure: Five, 6 month old BALB/c mice were injected with 50 μl of the solanidine-KLH conjugate mixed 1:1 with Ribi adjuvant (Ribi Immunochem Research Inc., Hamilton, Mont.). The mice received half the dose intraperitoneally and half intramuscularly every other week for a total of three injections. […] db-ELISA. […] Absorbance was measured at 405 nm and the resulting data analyzed by computer using an Excel (Microsoft, Redmond, Wash.) spreadsheet program. […]
measure: IC50

Answer with reported IC50 of "C[C@H]1CC[C@@H]2[C@@H](C)[C@H]3[C@H](C[C@H]4[C@@H]5CC=C6C[C@@H](O)CC[C@]6(C)[C@H]5CC[C@]34C)N2C1"
489 ppb
